# Lookup of reported EC50 keyed by entry
target_of_assay: UniProt:P28335
Sequence (P28335 33-458): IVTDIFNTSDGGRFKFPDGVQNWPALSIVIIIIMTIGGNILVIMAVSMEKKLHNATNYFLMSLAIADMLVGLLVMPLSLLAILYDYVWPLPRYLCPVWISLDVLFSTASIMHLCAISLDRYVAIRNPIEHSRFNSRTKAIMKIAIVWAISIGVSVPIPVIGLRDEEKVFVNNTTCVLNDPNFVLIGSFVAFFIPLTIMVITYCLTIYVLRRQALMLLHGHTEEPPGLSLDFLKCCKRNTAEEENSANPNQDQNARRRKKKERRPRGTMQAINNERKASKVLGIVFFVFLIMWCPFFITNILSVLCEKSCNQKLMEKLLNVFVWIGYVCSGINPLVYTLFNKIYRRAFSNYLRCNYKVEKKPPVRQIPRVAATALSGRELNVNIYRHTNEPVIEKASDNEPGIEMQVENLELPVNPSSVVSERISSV
assay_details: Functional calcium mobilization (FLIPR) assay, 5-HT2C
condition_set: CHO cells stably expressing human 5-HT2C receptor; agonist-stimulated Ca2+ flux

{"substance_smiles": "Clc1ccc(OC2CCCCC2)c2cc3c(nc12)CCNCC3", "target_of_assay": "UniProt:P28335", "EC50": "< 50 nM"}

Exercise: Query EC50 for Cc1c2c(nc3c(OC4CCCCCC4)ccc(F)c13)CCNCC2
Solution: < 10 nM

Exercise: Supply recorded EC50 for Fc1cc(C2CC2)c2nc3c(cc2c1Cl)CCNCC3 here.
Solution: < 5 nM

Exercise: Tell us which EC50 value is on record for Cc1c2c(nc3c(Cl)ccc(OC4CCCCC4)c13)CCNCC2
Solution: < 5 nM

Exercise: Fill in EC50 for record Clc1ccc(C2CC2)c2nc3c(cc12)CCNCC3
Solution: < 1 nM

Exercise: // fetch EC50 given entry Fc1cc(C2CC2)c2nc3c(cc2c1F)CCNCC3
Solution: < 5 nM

Exercise: Check the records and state EC50 for Cc1c2c(nc3c(OC4CCCCC4)ccc(F)c13)CCNCC2
Solution: < 10 nM

Exercise: Give recorded EC50. Cc1c2c(nc3c(C4CC4)ccc(Cl)c13)CCNCC2
Solution: < 15 nM

Exercise: # return recorded EC50 for input Fc1cccc(Oc2ccc(Cl)c3nc4c(cc23)CCNCC4)c1
Solution: < 20 nM

Exercise: Give recorded EC50. Cc1c2c(nc3c(C4CC4)c(F)cc(F)c13)CCNCC2
Solution: < 5 nM

Exercise: State its EC50 for this compound: Fc1cc(F)c2cc3c(nc2c1C1CC1)CCNCC3
Solution: < 5 nM
